TEST METHOD NOTES: Aqueous solubility
Assay type: physicochemical
CONDITION CONTEXT: water; read-out: S
PARAMETER: solubility

{"columns": ["SMILES NOTATION", "solubility"],
 "data": [
  ["CCN(CC)c1ccc2[nH]c3nc(O)nc-3cc2c1", "> 10 mg/mL"]
]}

According to the records, this compound COc1ccc(C(=O)N2CCN(c3ccc4[nH]c5nc(O)nc-5cc4c3)CC2)cc1OC displays solubility of < 10 mg/mL

Measured solubility, O=C(CCCCCOc1ccc2[nH]c3nc(O)nc-3cc2c1)N1CCN(CC2CCCCC2)CC1 : > 10 mg/mL

Lookup result for O=C(CCCOc1ccc2[nH]c3nc(O)nc-3cc2c1)N1CCN(c2ncccn2)CC1 ; measured solubility: > 10 mg/mL

# solubility (compound: O=C(O)C1CCN(c2ccc3[nH]c4nc(O)nc-4cc3c2)CC1 ) is < 10 mg/mL

# compound O=C(CCCOc1ccc2[nH]c3nc(O)nc-3cc2c1)N1CCN(CC2CCCCC2)CC1 ; its solubility = > 10 mg/mL

The value of solubility measured for the compound O=C(CCCOc1ccc2[nH]c3nc(O)nc-3cc2c1)N1CCN(c2cccc(C(F)(F)F)c2)CC1 turned out to be < 10 mg/mL

Looking up O=C(CCCOc1ccc2[nH]c3nc(O)nc-3cc2c1)N1CCN(C(c2ccccc2)c2ccccc2)CC1 , I see its solubility listed as < 10 mg/mL

Lookup result for COCCN1CCN(C(=O)CCCOc2ccc3[nH]c4nc(O)nc-4cc3c2)CC1 ; measured solubility: > 10 mg/mL

Input O=C(CCCOc1ccc2[nH]c3nc(O)nc-3cc2c1)N1CCN(Cc2cccs2)CC1 . Output solubility: > 10 mg/mL

meta.source: ChEMBL document CHEMBL1125486
